Assay Remarks: Chemical stability of compound in 0.01 N NaOH assessed as parent compound remaining measured after 3 hrs
Assay type: physicochemical
Assay Context: read-out: Stability
Observable: remaining at 3 h (%)
Give the number; % is assumed, so skip it.

*Q* Param item = `O=C(CNc1nonc1/C(=N/O)N[C@H]1Cc2ccc(F)cc21)NCCO` ; retrieve measured remaining at 3 h.
*A* 97.4

====

Tested On: CYP450 (Homo sapiens, UniProt P04798+P05177+P05181+P08684+P10632+P10635+P11509+P11712+P13584+P20813+P20815+P20853+P24462+P24903+P33260+P33261+P51589+P78329+P98187+Q02928+Q08477+Q16678+Q16696+Q5TCH4+Q6VVX0+Q7Z449+Q8TAV3+Q96SQ9+Q9HB55)
Assay Remarks: Inhibition of CYP450 (unknown origin)
Format: ADME, protein assay
Observable: IC50

*Q* Param item = `O=C(CNc1nonc1/C(=N/O)N[C@H]1Cc2ccc(F)cc21)NCCO` ; retrieve measured IC50.
*A* > 50 µM

====

Assay Remarks: Oral bioavailability in dog
Type: ADME, organism-based, Canis lupus familiaris
Assay Context: in vivo
Observable: bioavailability (%)
Give the number; % is assumed, so skip it.

*Q* Param item = `O=C(CNc1nonc1/C(=N/O)N[C@H]1Cc2ccc(F)cc21)NCCO` ; retrieve measured bioavailability.
*A* 67

====

Tested On: UniProt:P48775
Sequence (P48775 whole entry): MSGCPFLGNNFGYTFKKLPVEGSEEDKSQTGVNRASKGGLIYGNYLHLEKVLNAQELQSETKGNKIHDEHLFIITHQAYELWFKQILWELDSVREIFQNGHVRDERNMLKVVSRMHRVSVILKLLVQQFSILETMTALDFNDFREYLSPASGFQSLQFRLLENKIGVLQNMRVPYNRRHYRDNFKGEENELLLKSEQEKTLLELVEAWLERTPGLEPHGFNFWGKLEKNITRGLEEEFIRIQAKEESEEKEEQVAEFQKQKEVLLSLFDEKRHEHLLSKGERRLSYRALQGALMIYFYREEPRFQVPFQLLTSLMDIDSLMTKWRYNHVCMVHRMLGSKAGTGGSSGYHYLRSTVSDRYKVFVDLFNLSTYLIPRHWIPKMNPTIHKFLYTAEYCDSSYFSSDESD
Assay Remarks: Inhibition of TDO in human SW480 cells incubated for 48 hrs using L-tryptophan as substrate by fluorescence based assay
Format: cell-based
Observable: IC50

*Q* Param item = `O=C(CNc1nonc1/C(=N/O)N[C@H]1Cc2ccc(F)cc21)NCCO` ; retrieve measured IC50.
*A* > 10 µM

====

Assay Remarks: Total clearance in rat
Assay type: ADME
Assay Context: in vivo
# clearance per record follows
Give the number; mL/min/kg is assumed, so skip it.

Input Smiles | clearance / mL/min/kg
O=C(CSc1nonc1/C(=N/O)N[C@H]1Cc2ccc(F)cc21)NCCO | 42
CC(=O)NCCSc1nonc1/C(=N/O)N[C@H]1Cc2ccc(F)cc21 | 29
O=C(CNc1nonc1/C(=N/O)N[C@H]1Cc2ccc(F)cc21)NCCO | 15

*Q* Param item = `Nc1nonc1/C(=N/O)N[C@H]1Cc2ccc(F)cc21` ; retrieve measured clearance.
*A* 60

*Q* Param item = `NS(=O)(=O)NCCSc1nonc1/C(=N/O)N[C@H]1Cc2ccc(F)cc21` ; retrieve measured clearance.
*A* 14

*Q* Param item = `CC(=O)NCCNc1nonc1/C(=N/O)N[C@H]1Cc2ccc(F)cc21` ; retrieve measured clearance.
*A* 51

*Q* Param item = `NC(=O)CNc1nonc1/C(=N/O)N[C@H]1Cc2ccc(F)cc21` ; retrieve measured clearance.
*A* 17

*Q* Param item = `NS(=O)(=O)NCCNc1nonc1/C(=N/O)N[C@H]1Cc2ccc(F)cc21` ; retrieve measured clearance.
*A* 12

====

Assay Remarks: Clearance in dog
Assay type: ADME, Canis lupus familiaris
Assay Context: in vivo
Observable: clearance

*Q* Param item = `O=C(CNc1nonc1/C(=N/O)N[C@H]1Cc2ccc(F)cc21)NCCO` ; retrieve measured clearance.
*A* 6 mL/min/kg

====

Assay Remarks: Chemical stability of compound in 0.01 N HCl assessed as parent compound remaining measured after 3 hrs
Assay type: physicochemical
Assay Context: read-out: Stability
Observable: remaining at 3 h (%)
Give the number; % is assumed, so skip it.

*Q* Param item = `O=C(CNc1nonc1/C(=N/O)N[C@H]1Cc2ccc(F)cc21)NCCO` ; retrieve measured remaining at 3 h.
*A* 98.1
